- Tested on: NCI-H522 lung
- procedure.text: NCI-60 one-dose screen, 48 h (100 = growth as untreated, 0 = no growth, -100 = all killed)
- experimental.setup: 10 µM unless noted
Compounds without any hit were thinned out: in the full panel of roughly 83,000, 20% have a hit.
// values below are reported growth
Write the answer as a number in %, unit excluded.

Solved entries:
>>> measured("O=S1(=O)c2ccccc2Oc2ccccc21")
78.2
>>> measured("Cc1ccc(N)c(S(=O)(=O)O)c1")
156
>>> measured("NC(CCl)=NCC12CC3CC(CC(C3)C1)C2")
-58.7
>>> measured("O=c1nc(Nc2cccc(Cl)c2)oc2cc(Cl)oc(=O)c12")
26.2
>>> measured("COC1=C(OC)C(=O)C(SC/C=C(\\C)CCCC(C)CCCC(C)CCCC(C)C)=CC1=O (centres undefined)")
-6.14

I'd like to know its growth. The compound in question is `CCCCOC(=O)c1ccccc1O`
125

# input compound: `O=S(=O)(O)c1cccnc1` ; wanted: its growth
109

Returns the measured growth for the input compound. Input: `c1ccc(Oc2c3ccccc3nc3ccccc23)cc1`
-27.4

Entry `CC(=O)Nc1ccc(/C=C2\SC(=S)N(/C=C(\C(C)=O)C(N)=O)C2=O)cc1` has what growth?
84.2

# get_value(readout='growth', item= `N#Cc1ccc(OC(=O)Nc2c(Cl)cc(Cl)cc2Cl)cc1` )
89.8

Request the reported growth associated with CC1(C)OC2C(CO)OC(n3ccc(=O)[nH]c3=O)C2O1 (centres undefined)
81.5

Endpoint output: growth of `CCCCCCCCNC(=O)C(C)C` . Value?
92.5

Need growth, item `COc1ccc(NNS(=O)(=O)O)cc1`
96

Looking for the measured growth of `O=[N+]([O-])c1c(O)c(CNCCCO)cc(CNCCCO)c1O` , can you help?
121

I would be grateful if you could share the reported growth for `CSc1nsc(N)n1` .
90.3

Using the record for O=c1n(CC2CO2)c(=O)n(CC2CO2)n1CC1CO1 (centres undefined) , report its growth.
31.4

Look up growth for this compound: `CCCCn1cnc2c(=O)[nH]cnc21`
98.6

Record request: growth value, item `CCCCN(C=S)CCCC`
91.6

Name the reported growth value associated with the compound O=C(O)C1CSC(c2ccccc2)N1 (centres undefined)
79.4
